tested target: bovine cardiac myofibrils (full-length cardiac myosin ATPase in the native sarcomere) (Bos taurus (Bovine), UniProt Q9BE39)
Sequence (Q9BE39 whole entry): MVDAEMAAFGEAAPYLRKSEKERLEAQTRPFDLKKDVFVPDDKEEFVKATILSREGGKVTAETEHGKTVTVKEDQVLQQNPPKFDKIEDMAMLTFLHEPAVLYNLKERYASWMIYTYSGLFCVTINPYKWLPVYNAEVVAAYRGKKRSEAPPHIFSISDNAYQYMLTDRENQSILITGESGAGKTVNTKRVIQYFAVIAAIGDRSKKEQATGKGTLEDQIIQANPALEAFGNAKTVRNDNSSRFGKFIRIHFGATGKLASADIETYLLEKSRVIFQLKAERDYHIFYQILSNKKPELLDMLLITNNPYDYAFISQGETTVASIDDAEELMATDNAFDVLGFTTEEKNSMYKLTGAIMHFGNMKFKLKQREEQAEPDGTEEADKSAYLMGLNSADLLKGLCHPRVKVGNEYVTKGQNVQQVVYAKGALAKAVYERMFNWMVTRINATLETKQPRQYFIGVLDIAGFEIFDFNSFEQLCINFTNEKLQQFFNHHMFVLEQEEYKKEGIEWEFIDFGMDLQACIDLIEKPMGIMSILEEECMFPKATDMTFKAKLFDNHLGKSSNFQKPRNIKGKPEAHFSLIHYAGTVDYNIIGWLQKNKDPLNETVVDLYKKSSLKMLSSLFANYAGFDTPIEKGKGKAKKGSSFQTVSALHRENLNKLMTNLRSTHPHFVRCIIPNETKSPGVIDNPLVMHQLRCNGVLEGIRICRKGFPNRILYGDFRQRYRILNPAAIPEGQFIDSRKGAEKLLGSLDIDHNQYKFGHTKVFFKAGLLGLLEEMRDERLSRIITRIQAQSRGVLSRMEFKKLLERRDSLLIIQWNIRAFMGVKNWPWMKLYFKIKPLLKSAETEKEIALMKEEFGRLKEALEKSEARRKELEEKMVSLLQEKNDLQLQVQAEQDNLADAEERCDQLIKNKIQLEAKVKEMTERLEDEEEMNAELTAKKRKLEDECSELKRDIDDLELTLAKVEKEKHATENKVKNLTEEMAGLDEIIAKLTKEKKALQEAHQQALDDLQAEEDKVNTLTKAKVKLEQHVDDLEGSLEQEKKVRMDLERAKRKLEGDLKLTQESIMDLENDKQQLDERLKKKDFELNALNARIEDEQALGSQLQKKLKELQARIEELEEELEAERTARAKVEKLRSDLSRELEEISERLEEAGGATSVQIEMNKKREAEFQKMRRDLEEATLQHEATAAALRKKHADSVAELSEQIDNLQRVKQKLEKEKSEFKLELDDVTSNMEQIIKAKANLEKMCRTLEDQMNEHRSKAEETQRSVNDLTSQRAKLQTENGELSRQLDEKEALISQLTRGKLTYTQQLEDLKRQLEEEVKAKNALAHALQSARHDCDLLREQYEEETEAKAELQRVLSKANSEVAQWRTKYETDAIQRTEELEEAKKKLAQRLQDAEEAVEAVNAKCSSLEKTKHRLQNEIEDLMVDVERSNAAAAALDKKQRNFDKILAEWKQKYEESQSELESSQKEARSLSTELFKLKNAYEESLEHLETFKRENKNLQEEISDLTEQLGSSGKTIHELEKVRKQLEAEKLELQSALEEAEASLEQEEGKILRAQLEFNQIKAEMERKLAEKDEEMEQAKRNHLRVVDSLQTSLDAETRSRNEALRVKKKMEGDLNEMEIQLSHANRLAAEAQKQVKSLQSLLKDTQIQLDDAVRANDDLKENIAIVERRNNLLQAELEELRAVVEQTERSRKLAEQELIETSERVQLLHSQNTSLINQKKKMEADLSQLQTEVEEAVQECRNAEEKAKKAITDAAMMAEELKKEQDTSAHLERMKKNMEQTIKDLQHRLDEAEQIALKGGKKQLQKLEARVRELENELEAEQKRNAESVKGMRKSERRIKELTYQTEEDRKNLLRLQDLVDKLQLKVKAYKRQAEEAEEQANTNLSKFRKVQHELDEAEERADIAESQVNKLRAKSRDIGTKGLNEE
Sequence (P85100 whole entry partner): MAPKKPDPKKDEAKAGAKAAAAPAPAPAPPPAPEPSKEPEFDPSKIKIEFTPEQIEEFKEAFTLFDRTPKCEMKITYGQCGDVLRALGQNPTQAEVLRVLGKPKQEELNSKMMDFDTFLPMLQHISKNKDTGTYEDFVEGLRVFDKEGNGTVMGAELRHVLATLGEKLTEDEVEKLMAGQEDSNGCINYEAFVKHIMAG
Sequence (Q3SZE5 whole entry partner): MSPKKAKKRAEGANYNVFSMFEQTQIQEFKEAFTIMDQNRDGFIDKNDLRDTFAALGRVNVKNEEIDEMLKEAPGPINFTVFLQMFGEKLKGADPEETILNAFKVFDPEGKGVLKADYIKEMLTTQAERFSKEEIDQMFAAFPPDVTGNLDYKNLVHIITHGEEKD
assay notes: Skinned bovine cardiac myofibril ATPase assay (PK/LDH-coupled)
Type: biochemical
conditions used: Ca2+ activating to 75% of maximal rate, concentration giving 15% inhibition
readout type: CDMF75 IC15 (µM)

| compound | value units | CDMF75 IC15 |
| --- | --- | --- |
| Cn1cnc(C(=O)NC2CCc3cc(-c4noc(C(F)F)n4)ccc32)n1 (centres unmarked) [Compound 118] | µM | 19.3 |
| Cc1ncc(C(=O)N[C@@H]2CCc3cc(-c4noc(C5CC5)n4)ccc32)o1 [Compound 388] | µM | 0.9 |
| Cc1cc(C(=O)N[C@@H]2CCc3cc(-c4coc(C)n4)ccc32)ccn1 [Compound 146] | µM | 21.2 |
| Cc1ncoc1C(=O)N[C@@H]1CCc2cc(-c3noc(C4CC4)n3)ccc21 [Compound 390] | µM | 0.4 |
| Cc1cc(C(=O)N[C@@H]2CCc3cc(-c4noc(C(F)F)n4)ccc32)ccn1 [Compound 32] | µM | 0.6 |
| [2H]C([2H])([2H])c1nc(-c2ccc3c(c2)OC[C@H]3NC(=O)c2cc(C)nn2C)no1 [Compound 266] | µM | 0.9 |

(a) Cc1cncc(C(=O)NC2CCc3cc(-c4noc(C(F)F)n4)ccc32)n1 (centres unmarked) [Compound 23]
(b) Cc1noc(-c2ccc3c(c2)OC[C@H]3NC(=O)c2nnn(C)n2)n1 [Compound 344]
Task: I would appreciate it if you could say which entry, a or b , has the lower CDMF75 IC15 value. Label of pick, please.
Output: a
(a: 5.8 µM, b: 8.6 µM)
